# Assay Details: NCI Yeast Anticancer Drug Screen. Data for the mec2-1 strain (AID 157)
# Experimental Conditions: S. cerevisiae mec2-1 strain, at 50.0 µM, hits give high values
# Protocol: Growth inhibition of yeast strains with defined genetic alterations is measured as a screen for potential anti-cancer activity. Selected strains with alterations in DNA damage repair or cell cycle control were exposed to compounds and growth inhibition was measured relative to vehicle treated controls. The strain used in this assay is mec2-1
The panel holds about 79,000 compounds, 15% with a hit somewhere; the sample as a whole holds those more often.
Reported growth inhibition values are given for each entry in this list.
Value expressed in %; do not type the unit.

compound=CCOC(=O)N1CCN(c2c(N)nc(C)[nH]c2=O)CC1 measured_attribute="growth inhibition" readout_number=-20.9
compound="CC[N+]1(C)CCC(CN2c3ccccc3Sc3ccccc32)C1 (configuration not stated)" measured_attribute="growth inhibition" readout_number=22.6
compound=Cc1ccc(/C=C(/C#N)C(N)=O)cc1 measured_attribute="growth inhibition" readout_number=0.05
compound=COCCOC(=O)Nc1c(Cl)cccc1Cl measured_attribute="growth inhibition" readout_number=-18.5
compound=O=C(CCc1ccccc1C(=O)O)c1ccccc1O measured_attribute="growth inhibition" readout_number=-9.55
compound=CCOc1ccc2nc(SCCl)sc2c1 measured_attribute="growth inhibition" readout_number=-2.7

Then this compound:
// lookup growth inhibition for `CCCCCCCCCCCCCCCCC(CCCCCCCCCCCCCCCC)c1ccccc1`
-0.65

###

# Assay Details: NCI Yeast Anticancer Drug Screen. Data for the mec2-1 strain (AID 157)
# Experimental Conditions: S. cerevisiae mec2-1 strain, at 50.0 µM, hits give high values
Compounds without any hit were thinned out: in the full panel of roughly 79,000, 15% have a hit.
Measured Attribute: growth inhibition (%)
# value in %; strip the unit string

Please review the following examples before continuing.
compound="CCCC(/C(C)=N/NC(N)=O)C1CCCCC1 (configuration not stated)" measured_attribute="growth inhibition" readout_number=7.45
compound=N#CC(C#N)=NNc1ccc2cn[nH]c2c1 measured_attribute="growth inhibition" readout_number=28.2
compound="C=C(C)COC1CCCCO1 (configuration not stated)" measured_attribute="growth inhibition" readout_number=-15.1
compound="CCCCC(CC)C(=S)N1CCOCC1 (configuration not stated)" measured_attribute="growth inhibition" readout_number=-30.4

Form field: reported growth inhibition of `CC(=O)OCCc1ccccc1C#N`
9.05

Follow-up entry: `Cc1ccc2c(c1)C(c1ccccc1)(c1ccccc1)OC2=O`
11.9

`CCOC(=O)c1ccc(NC(=S)NCc2cccnc2)cc1` ?
-3.25

Item: NC(=O)C1CC(I)C2CC1C(=O)O2 (configuration not stated)
-4.3

And `CCN(CC)c1ccc(/C=C2\CCc3ccc([N+](=O)[O-])cc3C2=O)cc1` ?
-14.7

What do you get for `Cn1c(=O)ccc2c(=O)c3c(ccc4ccccc43)oc21` ?
-12.3

Okay, and `COC(=O)C(=O)c1cc(C)n(C)c(=O)c1CN1C(=O)c2ccccc2C1=O` ?
14.8

Same question, `CCN(CC)Cc1cc(Nc2cc(C)nc(/N=C(\N)Nc3cc(Cl)cc(Cl)c3)n2)ccc1O` this time
69.2

###

# Assay Details: NCI Yeast Anticancer Drug Screen. Data for the rad50 strain (AID 155);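 note: 0% = growth of vehicle-only cultures of the same strain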
# Experimental Conditions: S. cerevisiae rad50 strain growth inhibition; at 50.0 µM; hits give high values
# Description: Growth inhibition of yeast strains with defined genetic alterations is measured as a screen for potential anti-cancer activity. Selected strains with alterations in DNA damage repair or cell cycle control were exposed to compounds and growth inhibition was measured relative to vehicle treated controls. The strain used in this assay is rad50
This is part of a sample that, as a whole, favours compounds with a hit. Of some 79,000 tested, about 15% had one in any assay.
Measured Attribute: growth inhibition (%)
Write down the numeric answer in % and omit the unit.

Please review the following examples before continuing.
compound="COc1ccc2c(c1)CCC(OS(=O)(=O)CC13CCC(CC1=O)C3(C)C)C2=O (stereo unspecified)" measured_attribute="growth inhibition" readout_number=-9.15
compound=CCCCCCC1=CC(=O)CC(=O)C1 measured_attribute="growth inhibition" readout_number=25.9
compound=Cc1cccc(C(=O)NCCN(C)C)c1[N+](=O)[O-] measured_attribute="growth inhibition" readout_number=5.55
compound="CCC(CO)Nc1nncc2ccccc12 (stereo unspecified)" measured_attribute="growth inhibition" readout_number=2.4
compound=C=CCOCn1ccc(NC(=O)c2ccccc2)nc1=O measured_attribute="growth inhibition" readout_number=-58

Turning now to a further record.
Reported growth inhibition, compound COC(=O)c1cc(C(=CCC[C@H]2CC[C@@]3(C)C(CCC4C3CC[C@@]3(C)C4CC[C@@H]3C(C)CCCC(C)C)C2)c2cc(Cl)c(O)c(C(=O)OC)c2)cc(Cl)c1O (stereo partly specified) : ____
0
